Experiment notes: In vitro liver microsomal stability
Assay type: in vitro ADME
Setup conditions: dog, liver microsomes, pH 7.4, 30 m at 37 °C with NADPH regeneration system
Method: Each compound (final 1 μM, duplicated) was added to each 0.1 M PBS solution (pH 7.4) containing liver microsome of three different species (human, dog, mouse). After a brief (5 m) incubation at 37 °C, the NADPH regeneration system (Promega Corp., Madison, WI, USA) was added, then the mixture was incubated at 37 °C for 30 m. […] The remaining substrates were analyzed with Xcalibur 4.4 s/w using an MRM (multiple reaction monitoring) quantitation mode.
Measured quantity: remaining at 30 min, 1 μM (%)

Sample records with remaining at 30 min, 1 μM:
| Compound | remaining at 30 min, 1 μM, % |
| --- | --- |
| CCn1cnc2c(NCc3ccc(-c4ccccn4)nc3)nc(-c3ccc(N)nc3)nc21 [Compound 30d] | 46.2 |
| CCn1cnc2c(NCc3ccc(-c4ccnc(C)c4)nc3)nc(-c3ccc(N)nc3)nc21 [Compound 30a] | 45.1 |
| CCn1cnc2c(NCc3ccc(-c4ccccn4)nc3)nc(-c3cnc(N)nc3)nc21 [Compound 30e] | 67.6 |

(a) CCn1cnc2c(NCc3ccc(-c4ccnc(C)c4)nc3)nc(-c3cncnc3)nc21 [Compound 30c]
(b) CCn1cnc2c(NCc3ccc(-c4ccnc(C)c4)nc3)nc(-c3cnc(N)nc3)nc21 [Compound 30b]
Between a and b , which one shows the larger remaining at 30 min, 1 μM value? // caller expects the label of the chosen entry
a

====

Experiment notes: In vitro liver microsomal stability
Type: in vitro ADME
Setup conditions: mouse, liver microsomes, pH 7.4, 30 m at 37 °C with NADPH regeneration system
Measured quantity: remaining at 30 min, 1 μM (%)

(1) CCn1cnc2c(NCc3ccc(-c4ccnc(C)c4)nc3)nc(-c3cncnc3)nc21 [Compound 30c]
(2) CCn1cnc2c(NCc3ccc(-c4ccccn4)nc3)nc(-c3cnc(N)nc3)nc21 [Compound 30e]
Between 1 and 2 , which one shows the larger remaining at 30 min, 1 μM value? // caller expects the label of the chosen entry
2

====

Measurement target: CDK12/CyclinK (Homo sapiens, UniProt Q9NYV4)
Sequence (Q9NYV4 whole entry): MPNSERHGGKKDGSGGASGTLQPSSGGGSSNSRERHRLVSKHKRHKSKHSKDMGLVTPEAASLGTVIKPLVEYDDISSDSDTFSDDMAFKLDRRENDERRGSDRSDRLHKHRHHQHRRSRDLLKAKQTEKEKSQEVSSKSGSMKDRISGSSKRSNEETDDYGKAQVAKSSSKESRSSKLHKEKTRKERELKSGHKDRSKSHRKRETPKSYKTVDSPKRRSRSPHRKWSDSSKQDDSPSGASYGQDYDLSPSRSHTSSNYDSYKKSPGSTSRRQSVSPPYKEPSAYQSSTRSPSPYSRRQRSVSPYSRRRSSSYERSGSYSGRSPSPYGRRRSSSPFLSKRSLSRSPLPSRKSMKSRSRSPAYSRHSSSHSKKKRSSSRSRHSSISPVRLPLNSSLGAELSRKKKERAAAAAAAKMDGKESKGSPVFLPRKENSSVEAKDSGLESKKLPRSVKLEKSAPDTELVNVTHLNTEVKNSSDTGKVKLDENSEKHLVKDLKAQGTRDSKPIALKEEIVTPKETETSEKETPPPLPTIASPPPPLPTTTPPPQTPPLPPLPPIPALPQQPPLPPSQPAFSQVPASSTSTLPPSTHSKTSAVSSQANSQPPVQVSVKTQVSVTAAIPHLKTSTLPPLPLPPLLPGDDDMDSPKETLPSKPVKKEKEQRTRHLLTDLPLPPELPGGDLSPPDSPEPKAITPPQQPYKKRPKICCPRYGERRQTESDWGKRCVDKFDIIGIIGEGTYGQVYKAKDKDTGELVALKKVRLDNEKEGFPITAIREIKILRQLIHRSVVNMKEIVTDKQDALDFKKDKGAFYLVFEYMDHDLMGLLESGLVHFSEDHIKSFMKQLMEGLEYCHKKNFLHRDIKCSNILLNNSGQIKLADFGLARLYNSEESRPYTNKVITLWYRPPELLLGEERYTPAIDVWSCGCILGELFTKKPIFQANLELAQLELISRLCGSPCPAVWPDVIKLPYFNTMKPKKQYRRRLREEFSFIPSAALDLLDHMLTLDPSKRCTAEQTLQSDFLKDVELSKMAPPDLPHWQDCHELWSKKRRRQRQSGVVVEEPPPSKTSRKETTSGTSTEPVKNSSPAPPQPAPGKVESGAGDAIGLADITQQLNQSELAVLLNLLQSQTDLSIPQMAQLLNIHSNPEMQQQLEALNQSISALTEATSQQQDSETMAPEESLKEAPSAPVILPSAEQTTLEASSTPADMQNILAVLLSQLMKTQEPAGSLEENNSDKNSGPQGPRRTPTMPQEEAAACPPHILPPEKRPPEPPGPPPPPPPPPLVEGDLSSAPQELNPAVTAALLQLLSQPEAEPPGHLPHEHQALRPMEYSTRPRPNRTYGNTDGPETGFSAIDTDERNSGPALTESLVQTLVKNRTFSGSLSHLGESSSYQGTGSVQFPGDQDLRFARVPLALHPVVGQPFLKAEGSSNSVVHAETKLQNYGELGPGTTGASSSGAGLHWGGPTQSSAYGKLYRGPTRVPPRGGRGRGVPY
Sequence (O75909 whole entry partner): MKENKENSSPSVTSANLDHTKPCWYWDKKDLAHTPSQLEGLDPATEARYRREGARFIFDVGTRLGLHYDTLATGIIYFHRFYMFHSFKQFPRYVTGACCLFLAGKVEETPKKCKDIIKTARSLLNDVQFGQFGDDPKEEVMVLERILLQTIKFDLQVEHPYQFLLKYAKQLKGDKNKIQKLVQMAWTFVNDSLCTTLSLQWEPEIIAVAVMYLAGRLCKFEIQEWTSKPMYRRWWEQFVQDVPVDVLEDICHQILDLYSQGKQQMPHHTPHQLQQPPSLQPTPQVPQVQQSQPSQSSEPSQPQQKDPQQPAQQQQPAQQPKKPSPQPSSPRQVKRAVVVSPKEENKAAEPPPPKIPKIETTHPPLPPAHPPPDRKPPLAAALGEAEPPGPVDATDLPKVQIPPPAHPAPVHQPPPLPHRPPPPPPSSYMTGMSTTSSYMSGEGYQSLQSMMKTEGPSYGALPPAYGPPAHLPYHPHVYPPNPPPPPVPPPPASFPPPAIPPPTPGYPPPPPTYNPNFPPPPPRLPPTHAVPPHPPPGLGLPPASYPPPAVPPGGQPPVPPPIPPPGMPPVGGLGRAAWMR
Experiment notes: In vitro CDK12/cyclinK kinase assay
Type: biochemical
Set-up: purchased Reaction Biology Corp. (CRO that ran the assay)
Setup conditions: Table 5; means and standard deviations from three independent assays; read-out: CDK12/CyclinK (IC50/μM)
Measured quantity: IC50 (µM)

| Compound | IC50 (µM) |
| --- | --- |
| CCn1cnc2c(NCc3ccc(-c4ccnc(C)c4)nc3)nc(-c3cncnc3)nc21 [Compound 30c] | 0.064 |

(I) CN(C)C/C=C/C(=O)Nc1ccc(C(=O)N2CCC[C@@H](Nc3ncc(Cl)c(-c4c[nH]c5ccccc45)n3)C2)cc1 [THZ531, reference compound]
(II) CCn1cnc2c(NCc3ccc(-c4ccnc(C)c4)nc3)nc(-c3ccc(N)nc3)nc21 [Compound 30a]
(III) CC(C)n1cnc2c(NCc3nc4ccc(F)c(F)c4[nH]3)nc(N3CCCC[C@H]3CCO)nc21 [Compound 2, reference compound]
Arrange items by their IC50 values in increasing order. # answer = labels listed in requested order
III, II, I
(III: 0.0086 µM, II: 0.029 µM, I: 0.051 µM)

====

Measurement target: CDK12/CyclinK (Homo sapiens, UniProt Q9NYV4)
Experiment notes: In vitro CDK12/cyclinK kinase assay
Type: biochemical
Design: purchased Reaction Biology Corp. (CRO that ran the assay)
Setup conditions: Tables 1-4; read-out: CDK12/CyclinK (IC50/μM)
Experimental: In vitro CDK12/cyclinK assays for all compounds and in vitro kinome-wide inhibition profiling of 30d at 10 μM were performed by a CRO company (Reaction Biology Corp., San Diego, CA, USA).
Measured quantity: IC50 (µM)

Sample records with IC50:
| Molecule | IC50 [µM] |
| --- | --- |
| Cc1ccc(-c2nc(NCc3ccc(-c4cccnc4)nc3)c3ncn(C(C)C)c3n2)cn1 [Compound 18h] | 0.09 |
| CC(C)n1cnc2c(NCc3ccc(-c4cccnc4)nc3)nc(-n3cc(CCO)nn3)nc21 [Compound 26b] | 0.539 |
| CC(C)n1cnc2c(NCc3ccc(-c4cccnc4)nc3)nc(-c3cnc4ccccc4c3)nc21 [Compound 18g] | 0.486 |

(A) CC(C)n1cnc2c(NCc3ccc(-c4cccnc4)nc3)nc(-c3ccc4cn[nH]c4c3)nc21 [Compound 18e]
(B) CC(C)n1cnc2c(NCc3ccc(-c4cccnc4)nc3)nc(-c3ccc(NCCO)nc3)nc21 [Compound 22a]
(C) c1cncc(-c2ccc(CNc3nc(-c4cccnc4)nc4c3ncn4C3CCCC3)cn2)c1 [Compound 28b]
(D) CC(C)n1cnc2c(NCc3ccc(-c4cccnc4)nc3)nc(-c3cnc(N)nc3)nc21 [Compound 18l]
Arrange items by their IC50 values in increasing order. # answer = labels listed in requested order
B, D, A, C

(1) CC(C)n1cnc2c(NCc3ccc(-c4cccnc4)nc3)nc(-c3cncnc3)nc21 [Compound 18k]
(2) CC(C)n1cnc2c(NCc3ccc(-c4cccnc4)nc3)nc(-c3ccc4[nH]ccc4c3)nc21 [Compound 18d]
(3) CC(C)n1cnc2c(NCc3ccc(-c4cccnc4)nc3)nc(-c3cccc(NCCCO)c3)nc21 [Compound 20c]
(4) Cc1ccc(-c2ccc(CNc3nc(-c4cccnc4)nc4c3ncn4C(C)C)nc2)cn1 [Compound 17c]
Reorder: IC50, max to min. # answer = labels listed in requested order
4, 3, 2, 1
